system: Lipid bilayer; assay: Binding affinity to DOPG large unilamellar vesicle assessed as carboxyfluorescein leakage at 10 mg/L after 20 secs by fluorescence-based assay relative to control
Active and inactive are the calls of the source. The rule behind the calls is not given here.
measurement-kind: Activity

compound	measurement-kind	recorded-measurement
CCCCCCCCCCCCCCOP(=O)(CCN(CCCN)CCCN)OC[C@H]1O[C@@H](n2ccc(=O)[nH]c2=O)[C@H](O)[C@@H]1O (some centres undefined)	Activity	Active
CCCCCCCCCCCCCCOP(=O)(CCN(CCCNC(=N)N)CCCNC(=N)N)OC[C@H]1O[C@@H](n2ccc(=O)[nH]c2=O)[C@H](O)[C@@H]1O (some centres undefined)	Activity	Active
CCCCCCCCCCCCCCCOP(=O)(CCN(CCCN)CCCN)OC[C@H]1O[C@@H](n2ccc(=O)[nH]c2=O)[C@H](O)[C@@H]1O (some centres undefined)	Activity	Active
CCCCCCCCCCCCCCCOP(=O)(CCN(CCCNC(=N)N)CCCNC(=N)N)OC[C@H]1O[C@@H](n2ccc(=O)[nH]c2=O)[C@H](O)[C@@H]1O (some centres undefined)	Activity	< 85%

The values you see were collected from ChEMBL document CHEMBL4038308.
